# Test system: SEM cells
# ASSAY_NAME: cell viability relative to DMSO control; higher = less cytotoxic
# CONDITION_DESCRIPTION: RPMI 5 mM glucose + 10% FBS; 48 h; 0.00702 µM
MEASURED_METRIC: cell viability

Recorded cell viability, per entry:
Cc1ccnc2c1NC(=O)c1cccnc1N2C1CC1 = 84.6%
c1nc2c(NC3CCCCC3)nc(Nc3ccc(N4CCOCC4)cc3)nc2[nH]1 = 132%
O=C(O)c1cccnc1Nc1cccc(C(F)(F)F)c1 = 90.9%

Dear colleague, could you send me cell viability for each of the items below? Thanks.
1. CCCCC(C)(C)[C@H](O)/C=C/[C@H]1[C@H](O)CC(=O)[C@@H]1C/C=C\CCCC(=O)O
2. CNC(=O)c1ccc(Nc2cc(Nc3ccccc3[S+](=O)([O-])C(C)C)c3cc[nH]c3n2)nc1

Solution:
["131%", "106%"]

Origin of the recorded values: the supplement of paper PMC11451515
